meta.source: ChEMBL document CHEMBL3352432

TESTED SYSTEM: 3-phosphoinositide-dependent protein kinase 1 (Homo sapiens)
ASSAY OVERVIEW: Inhibition of PDK1 (unknown origin) expressed in HEK293 cells using PDKtide as substrate at 10 uM after 10 mins by liquid scintillation counting in presence of [gamma-32P]ATP
The compounds listed here are annotated with their inhibition.
Answer with the figure and its unit, nothing else.

Solved entries (count: 6):
INSERT INTO measurements (given_smiles, tested_system, endpoint_label, data_value) VALUES
  ('O=C(Nc1cccc(Nc2nc(-c3ccc4c(c3)OCO4)c3cc[nH]c3n2)c1)N1CCCC1', '3-phosphoinositide-dependent protein kinase 1 (Homo sapiens)', 'inhibition', '61%'),
  ('COc1cc(-c2nc(Nc3cccc(NC(=O)N4CCCC4)c3)nc3[nH]ccc23)cc(OC)c1OC', '3-phosphoinositide-dependent protein kinase 1 (Homo sapiens)', 'inhibition', '36%'),
  ('COc1ccc(-c2nc(Nc3cccc(NC(=O)N4CCCC4)c3)nc3[nH]ccc23)cc1', '3-phosphoinositide-dependent protein kinase 1 (Homo sapiens)', 'inhibition', '70%'),
  ('COc1ccc(Oc2nc(Nc3cccc(NC(=O)N4CCCC4)c3)nc3[nH]ccc23)cc1', '3-phosphoinositide-dependent protein kinase 1 (Homo sapiens)', 'inhibition', '65%'),
  ('O=C(Nc1cccc(Nc2nc(Nc3ccccc3)c3cc[nH]c3n2)c1)N1CCCC1', '3-phosphoinositide-dependent protein kinase 1 (Homo sapiens)', 'inhibition', '46%'),
  ('O=C(Nc1cccc(Nc2nc(-c3ccccc3)c3cc[nH]c3n2)c1)N1CCCC1', '3-phosphoinositide-dependent protein kinase 1 (Homo sapiens)', 'inhibition', '59%');

Write down inhibition measured for item COc1cccc(-c2nc(Nc3cccc(NC(=O)N4CCCC4)c3)nc3[nH]ccc23)c1
48%

Look up inhibition of COc1nc(Nc2cccc(NC(=O)N3CCCC3)c2)nc2[nH]ccc12 and report it.
90%

Fill in inhibition for record COc1ccc(Nc2nc(Nc3cccc(NC(=O)N4CCCC4)c3)nc3[nH]ccc23)cc1
45%

Report inhibition, nothing else, for this compound: COc1ccc(-c2nc(Nc3cccc(NC(=O)N4CCCC4)c3)nc3[nH]ccc23)cc1OC
65%

Specify reported inhibition for the compound shown: O=C(Nc1cccc(Nc2nc(-c3cccc(OCc4cccnc4)c3)c3cc[nH]c3n2)c1)N1CCCC1
46%
